Collected from the literature: pIC50 of various compounds toward 3-phosphoinositide-dependent protein kinase 1 (Homo sapiens).
pIC50: −log10 of the molar value.
measure: pIC50

compound=CCCCCNC(=O)O[C@@H]1CC[C@@H]2[C@@H](C(=O)Nc3ccc(N(C)C)cc3)C[C@H]1N2CCC(C)C assaysystem="3-phosphoinositide-dependent protein kinase 1 (Homo sapiens)" measure=pIC50 censoringqualifier== measurednumber=4.74
compound=O=C1NC(=O)c2ccc(I)cc2C1=CNCc1ccc(-c2ccoc2)c(O)c1 assaysystem="3-phosphoinositide-dependent protein kinase 1 (Homo sapiens)" measure=pIC50 censoringqualifier== measurednumber=4.77
compound=CN(C)C(=O)c1cnc2ccc(C#CCNC(=O)c3cncn(Cc4ccc(F)c(F)c4)c3=O)cc2n1 assaysystem="3-phosphoinositide-dependent protein kinase 1 (Homo sapiens)" measure=pIC50 censoringqualifier== measurednumber=6.73
compound=CC(C)CC(=O)Nc1[nH]nc2c1CN(C(=O)C1CCN(C)CC1)C2(C)C assaysystem="3-phosphoinositide-dependent protein kinase 1 (Homo sapiens)" measure=pIC50 censoringqualifier=< measurednumber=5.00
compound=CN1CCN(c2ccc(OC(F)(F)F)c(Nc3nccc(-c4cc(C(N)=O)cn4C)n3)c2)CC1 assaysystem="3-phosphoinositide-dependent protein kinase 1 (Homo sapiens)" measure=pIC50 censoringqualifier=< measurednumber=5.00
compound=CCOC(=O)c1cnn2c(-c3cccc(NC(=O)c4cccc(C(F)(F)F)c4)c3)ccnc12 assaysystem="3-phosphoinositide-dependent protein kinase 1 (Homo sapiens)" measure=pIC50 censoringqualifier=< measurednumber=5.00
compound=CC(C)c1n[nH]c(Cl)c1-c1ccnc(Nc2ccc(N3CCC(N(C)C)CC3)cn2)n1 assaysystem="3-phosphoinositide-dependent protein kinase 1 (Homo sapiens)" measure=pIC50 censoringqualifier=< measurednumber=5.00
compound="O=Nc1c(C2C(=O)Nc3ccccc32)[nH]c2ccccc12 (centres undefined)" assaysystem="3-phosphoinositide-dependent protein kinase 1 (Homo sapiens)" measure=pIC50 censoringqualifier=< measurednumber=4.00
compound=O=C(NCCCNc1nc(Nc2cccc(NC(=O)N3CCCC3)c2)ncc1I)c1cccs1 assaysystem="3-phosphoinositide-dependent protein kinase 1 (Homo sapiens)" measure=pIC50 censoringqualifier== measurednumber=8.22
